assay: Determination of aldehyde capture rate (nonenal as model aldehyde, HPLC quantification); conditions: 465 minutes; nonenal 0.025 mM, compound 0.05 mM, room temperature
measured_endpoint: Aldehyde consumption (100%)
Quick reminder: number only, in %, skip the unit.

INSERT INTO measurements (chemical_smiles, numeric_readout) VALUES
  ('CC(C)(O)c1cc2cc3c(cc2cc1N)OCCO3', 22.01),
  ('CC(C)(O)c1cc2cc3c(cc2cc1N)OCO3', 66.62),
  ('Nc1cc2cc3c(cc2cc1C1(O)CC1)OCO3', 16.60);

Okay, next one:
Request: # input compound: `Cn1cnc2cc3cc(N)c(C(C)(C)O)nc3cc21` ; wanted: its Aldehyde consumption (100%)
Response: 36.01
